Target: CDK4/cyclin D3 (Homo sapiens, UniProt P11802)
Construct: made in house; host or cells: insect cells (baculovirus co-infection)
Sequence (P11802 whole entry): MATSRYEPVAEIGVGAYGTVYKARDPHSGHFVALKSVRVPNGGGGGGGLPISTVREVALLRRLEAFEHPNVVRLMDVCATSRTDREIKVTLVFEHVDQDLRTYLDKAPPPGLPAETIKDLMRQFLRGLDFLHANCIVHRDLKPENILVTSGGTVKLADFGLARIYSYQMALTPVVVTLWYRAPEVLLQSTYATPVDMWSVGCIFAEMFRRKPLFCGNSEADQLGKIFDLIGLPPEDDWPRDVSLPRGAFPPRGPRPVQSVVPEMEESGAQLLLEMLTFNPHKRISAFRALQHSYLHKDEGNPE
Sequence (P30281 1-264 partner limits assumed): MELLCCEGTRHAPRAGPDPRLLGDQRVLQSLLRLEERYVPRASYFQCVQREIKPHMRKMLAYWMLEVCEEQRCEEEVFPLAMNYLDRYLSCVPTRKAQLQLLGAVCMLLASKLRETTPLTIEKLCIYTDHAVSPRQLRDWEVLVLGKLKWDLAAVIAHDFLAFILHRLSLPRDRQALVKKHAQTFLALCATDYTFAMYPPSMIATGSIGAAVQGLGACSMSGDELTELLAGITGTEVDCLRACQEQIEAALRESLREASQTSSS
Assay: Inhibition of CDK4/Cyclin D retinoblastoma kinase activity
Type: biochemical
Settings: test compound at 0.1 μM; 0.1 µM
Measurement Name: % Inhib CDK4/D @ 0.1 μM (%)

Compound: CCOC(=O)CCS(=O)(=O)c1ccc(Nc2nc(N)c(C(=O)c3c(Cl)cccc3Cl)s2)cc1 [DD(182))]
Measurement Name: % Inhib CDK4/D @ 0.1 μM
Output Unit: %
Reported Measurement: 17
--
Compound: CN1CCCC(CS(=O)(=O)c2ccc(Nc3nc(N)c(C(=O)c4c(Cl)cccc4Cl)s3)cc2)C1 (stereo not shown)
Measurement Name: % Inhib CDK4/D @ 0.1 μM
Output Unit: %
Reported Measurement: 16
--
Compound: Nc1nc(Nc2ccc(S(=O)(=O)CC3CNC(=O)O3)cc2)sc1C(=O)c1c(Cl)cccc1Cl (stereo not shown) [DD(209)]
Measurement Name: % Inhib CDK4/D @ 0.1 μM
Output Unit: %
Reported Measurement: 8
--
Compound: Nc1nc(Nc2ccc(S(=O)(=O)CC3CNC(=O)O3)cc2)sc1C(=O)c1c(Cl)cccc1Cl (stereo not shown) [DD(169)]
Measurement Name: % Inhib CDK4/D @ 0.1 μM
Output Unit: %
Reported Measurement: 33
--
Compound: CC(C)CCOC(=O)CS(=O)(=O)c1ccc(Nc2nc(N)c(C(=O)c3c(Cl)cccc3Cl)s2)cc1 [DD(191)]
Measurement Name: % Inhib CDK4/D @ 0.1 μM
Output Unit: %
Reported Measurement: 31
--
Compound: CC(C)CCOC(=O)CS(=O)(=O)c1ccc(Nc2nc(N)c(C(=O)c3c(Cl)cccc3Cl)s2)cc1 [DD(194)]
Measurement Name: % Inhib CDK4/D @ 0.1 μM
Output Unit: %
Reported Measurement: 32

a = Nc1nc(Nc2ccc(S(=O)(=O)CC3CCCO3)cc2)sc1C(=O)c1c(Cl)cccc1Cl (stereo not shown) [DD(178)]
b = COC(=O)/C=C/CS(=O)(=O)c1ccc(Nc2nc(N)c(C(=O)c3c(Cl)cccc3Cl)s2)cc1 [DD(204)]
c = NC(=O)CCSc1ccc(Nc2nc(N)c(C(=O)c3c(Cl)cccc3Cl)s2)cc1
d = CC(C)(CO)CS(=O)(=O)c1ccc(Nc2nc(N)c(C(=O)c3c(Cl)cccc3Cl)s2)cc1
Highest % Inhib CDK4/D @ 0.1 μM first, then in falling order down to the smallest. Give me the labels in the order the question wants.
c, b, a, d

P = CN1CCCC1CCS(=O)(=O)c1ccc(Nc2nc(N)c(C(=O)c3c(Cl)cccc3Cl)s2)cc1 (stereo not shown)
Q = Nc1nc(Nc2ccc(S(=O)(=O)CC3CCCO3)cc2)sc1C(=O)c1c(Cl)cccc1Cl (stereo not shown) [DD(218)]
Field: entry with larger % Inhib CDK4/D @ 0.1 μM (options P / Q ). Please identify the chosen entry by its label.
Q
(Q: 33%, P: 22%)

###

System: HCT-116 cells
Test: Inhibition of cell growth (MTT tetrazolium salt assay)
Type: cell-based
Conditions: Homo sapiens, read-out: HCT116 IC90
Measurement Name: IC90 (µM)

I = CN(C)CCCNS(=O)(=O)c1ccc(Nc2nc(N)c(C(=O)c3c(F)cccc3F)s2)cc1
II = CCSCCNS(=O)(=O)c1ccc(Nc2nc(N)c(C(=O)c3c(F)cccc3F)s2)cc1
III = CC(C)OCCCNS(=O)(=O)c1ccc(Nc2nc(N)c(C(=O)c3c(F)cccc3F)s2)cc1
I'd appreciate it if you sorted the entries above by their IC90, lowest to highest. Give me the labels in the order the question wants.
II, III, I
(II: 1.3 µM, III: 2.2 µM, I: 4.4 µM)

a = CC(C)CCCCNS(=O)(=O)c1ccc(Nc2nc(N)c(C(=O)c3c(F)cccc3F)s2)cc1
b = NC(=O)CSc1ccc(Nc2nc(N)c(C(=O)c3c(Cl)cccc3Cl)s2)cc1
c = C[S+]([O-])c1ccc(Nc2nc(N)c(C(=O)c3c(Cl)cccc3Cl)s2)cc1 (stereo not drawn)
Highest IC90 first, then in falling order down to the smallest. Give me the labels in the order the question wants.
c, b, a
